# methodSummary: plasma protein binding by equilibrium dialysis
# Format: in vitro ADME, human
# measurementContext: male, human, plasma, human plasma, 0.3 μg/mL, 37 °C 24 h dialysis, mean ± SD of triplicates
metricName: fraction unbound at 24 h, 0.3 μg/mL
Would you mind answering with just the numeric figure?

query: What value of measured fraction unbound at 24 h, 0.3 μg/mL is listed for CCc1cc2c(cc1N1CCC(NCCO)CC1)C(C)(C)c1[nH]c3cc(C#N)ccc3c1C2=O ?
result: 0.009

---

# methodSummary: plasma protein binding by equilibrium dialysis
# Type: in vitro ADME, human
# measurementContext: male, human, plasma, human plasma, 0.1 μg/mL, 37 °C 24 h dialysis, mean ± SD of triplicates
metricName: fraction unbound at 24 h, 0.1 μg/mL
Would you mind answering with just the numeric figure?

query: What value of measured fraction unbound at 24 h, 0.1 μg/mL is listed for CCc1cc2c(cc1N1CCC(N3CCOCC3)CC1)C(C)(C)c1[nH]c3cc(C#N)ccc3c1C2=O [Alectinib, reference compound] ?
result: 0.004

---

# targetOfAssay: ALK (Homo sapiens, UniProt Q9UM73)
# Sequence (Q9UM73 19-1620): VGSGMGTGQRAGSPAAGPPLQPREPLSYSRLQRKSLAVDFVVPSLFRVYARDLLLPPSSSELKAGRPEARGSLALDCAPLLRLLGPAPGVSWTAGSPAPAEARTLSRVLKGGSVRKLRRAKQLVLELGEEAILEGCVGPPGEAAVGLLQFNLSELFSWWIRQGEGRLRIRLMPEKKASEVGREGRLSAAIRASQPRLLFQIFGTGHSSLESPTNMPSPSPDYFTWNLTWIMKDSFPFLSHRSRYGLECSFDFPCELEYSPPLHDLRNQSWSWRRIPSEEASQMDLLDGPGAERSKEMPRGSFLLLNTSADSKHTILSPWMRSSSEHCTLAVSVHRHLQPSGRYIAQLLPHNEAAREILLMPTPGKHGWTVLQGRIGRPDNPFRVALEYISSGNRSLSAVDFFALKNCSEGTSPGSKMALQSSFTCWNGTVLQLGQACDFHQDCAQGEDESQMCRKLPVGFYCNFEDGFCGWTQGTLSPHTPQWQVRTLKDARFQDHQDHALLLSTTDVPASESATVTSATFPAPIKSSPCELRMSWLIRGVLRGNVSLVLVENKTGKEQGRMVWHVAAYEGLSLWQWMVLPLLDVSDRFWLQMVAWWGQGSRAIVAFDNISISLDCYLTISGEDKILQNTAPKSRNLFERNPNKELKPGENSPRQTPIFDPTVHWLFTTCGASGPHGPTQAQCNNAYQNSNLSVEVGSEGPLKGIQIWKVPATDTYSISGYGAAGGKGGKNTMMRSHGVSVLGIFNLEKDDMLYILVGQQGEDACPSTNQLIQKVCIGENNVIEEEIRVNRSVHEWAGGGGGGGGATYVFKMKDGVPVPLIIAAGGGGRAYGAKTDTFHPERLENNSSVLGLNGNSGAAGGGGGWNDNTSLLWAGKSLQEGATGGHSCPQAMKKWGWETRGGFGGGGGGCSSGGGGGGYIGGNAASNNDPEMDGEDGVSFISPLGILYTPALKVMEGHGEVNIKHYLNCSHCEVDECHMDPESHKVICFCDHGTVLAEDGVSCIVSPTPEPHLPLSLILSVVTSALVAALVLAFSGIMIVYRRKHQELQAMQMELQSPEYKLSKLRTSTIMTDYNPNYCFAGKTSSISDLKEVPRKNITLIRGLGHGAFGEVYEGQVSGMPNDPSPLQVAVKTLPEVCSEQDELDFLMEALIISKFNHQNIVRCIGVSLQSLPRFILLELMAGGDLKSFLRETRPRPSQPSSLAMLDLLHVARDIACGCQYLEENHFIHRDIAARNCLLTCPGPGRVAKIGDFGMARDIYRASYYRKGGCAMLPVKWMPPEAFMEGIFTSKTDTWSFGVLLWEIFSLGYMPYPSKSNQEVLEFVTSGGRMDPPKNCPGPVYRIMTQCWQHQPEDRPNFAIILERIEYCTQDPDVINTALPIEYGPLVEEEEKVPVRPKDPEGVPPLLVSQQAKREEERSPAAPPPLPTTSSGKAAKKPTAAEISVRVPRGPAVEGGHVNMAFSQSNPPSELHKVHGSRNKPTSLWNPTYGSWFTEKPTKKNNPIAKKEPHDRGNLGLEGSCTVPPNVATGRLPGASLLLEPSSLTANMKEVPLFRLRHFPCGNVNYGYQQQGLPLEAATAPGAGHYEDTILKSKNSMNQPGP
metricName: pIC50
# log scale: pIC50 equals minus log10 of the concentration in mol/L

query: What value of measured pIC50 is listed for CCc1cc2c(cc1N1CCC(NCCO)CC1)C(C)(C)c1[nH]c3cc(C#N)ccc3c1C2=O ?
result: 8.92

---

# methodSummary: plasma protein binding by equilibrium dialysis
# Format: in vitro ADME, human
# measurementContext: male, human, plasma, human plasma, 2 μg/mL, 37 °C 24 h dialysis, mean ± SD of triplicates
metricName: fraction unbound at 24 h, 2 μg/mL
Would you mind answering with just the numeric figure?

query: What value of measured fraction unbound at 24 h, 2 μg/mL is listed for CCc1cc2c(cc1N1CCC(NCCO)CC1)C(C)(C)c1[nH]c3cc(C#N)ccc3c1C2=O ?
result: 0.005

---

Would you mind telling me the reported fraction unbound at 24 h, 1 μg/mL of each entry?
# methodSummary: plasma protein binding by equilibrium dialysis
# Format: in vitro ADME, human
# measurementContext: male, human, plasma, human plasma, 1 μg/mL, 37 °C 24 h dialysis, mean ± SD of triplicates

query: What value of measured fraction unbound at 24 h, 1 μg/mL is listed for CCc1cc2c(cc1N1CCC(N3CCOCC3)CC1)C(C)(C)c1[nH]c3cc(C#N)ccc3c1C2=O [Alectinib, reference compound] ?
result: 0.003

query: Would you kindly repeat that for CCc1cc2c(cc1N1CCC(NCCO)CC1)C(C)(C)c1[nH]c3cc(C#N)ccc3c1C2=O ?
result: 0.005

---

# methodSummary: plasma protein binding by equilibrium dialysis
# Assay type: in vitro ADME, human
# measurementContext: male, pooled human plasma dialysed against PBS; human plasma / PBS after dialysis; read-out: recovery in the plasma protein binding (equilibrium dialysis) experiment
# Experimental: Plasma was obtained by centrifugation (4 °C, 1600 g, 10 min, CF7D2, Hitachi Koki) of EDTA‐treated blood from three healthy male volunteers and was then pooled. […] Samples for M4 were mixed with deuterated M4 as an internal standard and acetonitrile/methanol (1:1, v/v). […] The recovery was calculated by the following equation. Protein binding was calculated by the following equation. […]
metricName: recovery at 24 h

query: What value of measured recovery at 24 h is listed for CCc1cc2c(cc1N1CCC(N3CCOCC3)CC1)C(C)(C)c1[nH]c3cc(C#N)ccc3c1C2=O [Alectinib, reference compound] ?
result: 85%

query: Would you kindly repeat that for CCc1cc2c(cc1N1CCC(NCCO)CC1)C(C)(C)c1[nH]c3cc(C#N)ccc3c1C2=O ?
result: 82.7%
